Tested on: S. aureus NRRL B2747
measurement.description: MIC, agar incorporation method, anaerobic
Format: cell-based
condition.notes: Staphylococcus aureus, NRRLB2747, 48 hours at 35° C., GasPak Anaerobic Jar, read-out: Minimal Inhibitory Concentration
Readings of MIC for the listed compounds
Reply numerically in µg/mL, unit not repeated.

Below, 3 compounds whose answers are already recorded.
C=C1C(=O)c2ccccc2OC1(c1ccccc1)c1cccs1 (stereo not drawn): 1.56
CN(C)CC1C(=O)c2ccccc2OC1c1ccccc1 (stereo not drawn) [MA 1347, 3-(dimethylaminomethyl)flavanone, reference compound]: 25
C=C1C(=O)c2ccccc2OC1(c1ccccc1)c1ccncc1 (stereo not drawn): 1

The measured MIC associated with C=C1C(=O)c2ccccc2OC1c1ccc(Cl)cc1Cl (stereo not drawn) reads 6.2

The measured MIC associated with C=C1C(=O)c2ccccc2OC1c1ccccc1 (stereo not drawn) reads 25
